So I've got a bunch of binders here, and I need their ND50 values.
Target: T1, human IL-1α (human, UniProt P01583 113-271)
T1 sequence (looked up): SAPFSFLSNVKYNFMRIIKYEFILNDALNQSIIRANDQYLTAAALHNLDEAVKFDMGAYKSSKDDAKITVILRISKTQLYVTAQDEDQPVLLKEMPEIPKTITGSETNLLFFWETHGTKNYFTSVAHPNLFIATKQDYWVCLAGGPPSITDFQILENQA
Experiment: cell-based or functional assay
Answers are plain numbers, in nM.

Below, 3 binders whose answers are already recorded.
[[record]]
binder = "ABT1-95-23 (other, VK dAb) VL: DIQMTQSPSSLSASVGDRVTITCRASQPTVRNLRWYQQKPGKAPKLLIYSSSYLEPGVPSRFSGSGSGTDFTLTISSLQPEDFATYYCQQGYRWPVTFGQGTKVEIKR"
readout_value = 0.5

[[record]]
binder = "ABT1-95-167 (other) VL: DIQMTQSPSSLSASVGDRVTITCRASQPIVRNLRWYQQKPGKAPKLLIYSRSYLEPGVPSRFSGSGSGADFTLTISSLQPEDFATYHCQQGYRWPVTFGQGTKVEIKR"
readout_value = 0.469

[[record]]
binder = "ABT1-95-122 (other, VK dAb) VL: DIQMTQSPSSLSASVGDRVTITCRASQPIVRNLRWYQQKPGKAPKLLIYSSSYLEPGVPSRFSGSGSGTDFILTISSLQPEDFATYHCQQGYRWPVTFGQGTKVEIKR"
readout_value = 0.116


Please look at the following binder next.
Task: Report ND50 for ABT1-95-80 (other, VK dAb) VL: DIQMTQSPSSLSASVGDRVTITCRASQPIVRNLRWYQQKPGKAPKLLIYSVSYLEPGVPSRFSGSGSGTDFTLTISSLQPEDFATYHCQQGYRWPVTFGQGTKVEIKR please.
Output: 0.008
